Listed next: entries and their corresponding Activity.
# Tested on: Mus musculus
# assayNotes: Toxicity in mouse P388 cells allografted CD2F1 mouse assessed as body weight loss at 50 mg/kg, ip of total 9 doses starting 24 hrs post tumor inoculation measured on day 5 of inoculation relative to control
# Type: organism-based
# Set-up: dose 50 mg/kg, route intraperitoneal
# experimentalParameters: in vivo
quantityName: Activity (g)

smilesstructure=CNC(=O)OCc1c(COC(=O)NC)c(-c2ccc(SC)cc2)n(C)c1C testedsystem="Mus musculus" quantityname=Activity readoutvalue=2.9
smilesstructure=CNC(=O)OCc1c(COC(=O)NC)c(-c2ccc(C(C)(C)C)cc2)n(C)c1C testedsystem="Mus musculus" quantityname=Activity readoutvalue=5.1
smilesstructure=CNC(=O)OCc1c(COC(=O)NC)c(-c2ccc(F)cc2)n(C)c1C testedsystem="Mus musculus" quantityname=Activity readoutvalue=5.1
smilesstructure=CNC(=O)OCc1c(COC(=O)NC)c(-c2ccccc2)n(C)c1C testedsystem="Mus musculus" quantityname=Activity readoutvalue=4.6
smilesstructure=CNC(=O)OCc1c(COC(=O)NC)c(-c2ccc(Sc3ccccc3)cc2)n(C)c1C testedsystem="Mus musculus" quantityname=Activity readoutvalue=2.1
smilesstructure=CNC(=O)OCc1c(COC(=O)NC)c(-c2ccc([N+](=O)[O-])cc2)n(C)c1C testedsystem="Mus musculus" quantityname=Activity readoutvalue=6.6
smilesstructure=CNC(=O)OCc1c(COC(=O)NC)c(-c2ccc(OC)cc2)n(C)c1C testedsystem="Mus musculus" quantityname=Activity readoutvalue=4.4
smilesstructure=CNC(=O)OCc1c(COC(=O)NC)c(-c2ccc(S(C)(=O)=O)cc2)n(C)c1C testedsystem="Mus musculus" quantityname=Activity readoutvalue=1.1
smilesstructure=CNC(=O)OCc1c(COC(=O)NC)c(-c2ccc(C)cc2)n(C)c1C testedsystem="Mus musculus" quantityname=Activity readoutvalue=4.5
smilesstructure=CNC(=O)OCc1c(COC(=O)NC)c(-c2ccc(N)cc2)n(C)c1C testedsystem="Mus musculus" quantityname=Activity readoutvalue=2.5
smilesstructure=CNC(=O)OCc1c(COC(=O)NC)c(-c2ccc(Cl)cc2)n(C)c1C testedsystem="Mus musculus" quantityname=Activity readoutvalue=5.7
smilesstructure=CNC(=O)OCc1c(COC(=O)NC)c(-c2ccc(Cl)c(Cl)c2)n(C)c1C testedsystem="Mus musculus" quantityname=Activity readoutvalue=3.2

----------
Listed next: entries and their corresponding Activity.
# System: Mus musculus
# assayNotes: Toxicity in mouse P388 cells allografted CD2F1 mouse assessed as body weight loss at 12.5 mg/kg, ip of total 9 doses starting 24 hrs post tumor inoculation measured on day 5 of inoculation relative to control
# Format: organism-based
# Design: dose 12.5 mg/kg, route intraperitoneal
# experimentalParameters: in vivo
quantityName: Activity (g)

smilesstructure=CNC(=O)OCc1c(COC(=O)NC)c(-c2ccc(Cl)c(Cl)c2)n(C)c1C readoutvalue=1.7
smilesstructure=CNC(=O)OCc1c(COC(=O)NC)c(-c2ccc(C)cc2)n(C)c1C readoutvalue=3.2
smilesstructure=CNC(=O)OCc1c(COC(=O)NC)c(-c2ccc([N+](=O)[O-])cc2)n(C)c1C readoutvalue=4.1
smilesstructure=CNC(=O)OCc1c(COC(=O)NC)c(-c2ccc(Cl)cc2)n(C)c1C readoutvalue=3.2
smilesstructure=CNC(=O)OCc1c(COC(=O)NC)c(-c2ccc(N)cc2)n(C)c1C readoutvalue=0.1

----------
# Tested on: Mus musculus
# assayNotes: Toxicity in mouse P388 cells allografted CD2F1 mouse assessed as mouse survival at 100 mg/kg, ip of total 9 doses starting 24 hrs post tumor inoculation measured on day 5 of inoculation relative to control
# Assay type: organism-based
# Set-up: dose 100 mg/kg, route intraperitoneal
# experimentalParameters: in vivo
quantityName: Activity

smilesstructure=CNC(=O)OCc1c(COC(=O)NC)c(-c2ccc(C)cc2)n(C)c1C readoutvalue=Toxic
smilesstructure=CNC(=O)OCc1c(COC(=O)NC)c(-c2ccc(F)cc2)n(C)c1C readoutvalue=Toxic
smilesstructure=CNC(=O)OCc1c(COC(=O)NC)c(-c2ccc(S(C)(=O)=O)cc2)n(C)c1C readoutvalue=Non-toxic
smilesstructure=CNC(=O)OCc1c(COC(=O)NC)c(-c2ccc(Sc3ccccc3)cc2)n(C)c1C readoutvalue=Non-toxic

----------
# Test system: Mus musculus
# assayNotes: Toxicity in mouse P388 cells allografted CD2F1 mouse assessed as body weight loss at 6.25 mg/kg, ip of total 9 doses starting 24 hrs post tumor inoculation measured on day 5 of inoculation relative to control
# Assay type: organism-based
# Set-up: dose 6.25 mg/kg, route intraperitoneal
# experimentalParameters: in vivo
quantityName: Activity (g)

smilesstructure=CNC(=O)OCc1c(COC(=O)NC)c(-c2ccc(SC)cc2)n(C)c1C quantityname=Activity unitdescriptor=g readoutvalue=1.4
smilesstructure=CNC(=O)OCc1c(COC(=O)NC)c(-c2ccc(C)cc2)n(C)c1C quantityname=Activity unitdescriptor=g readoutvalue=1.4
smilesstructure=CNC(=O)OCc1c(COC(=O)NC)c(-c2ccc(N)cc2)n(C)c1C quantityname=Activity unitdescriptor=g readoutvalue=0.7
smilesstructure=CNC(=O)OCc1c(COC(=O)NC)c(-c2ccc([N+](=O)[O-])cc2)n(C)c1C quantityname=Activity unitdescriptor=g readoutvalue=2.9
smilesstructure=CNC(=O)OCc1c(COC(=O)NC)c(-c2ccccc2)n(C)c1C quantityname=Activity unitdescriptor=g readoutvalue=2.5

----------
Listed next: entries and their corresponding Activity.
# Test system: Mus musculus
# assayNotes: Toxicity in mouse P388 cells allografted CD2F1 mouse assessed as body weight loss at 12.5 mg/kg, ip of total 9 doses starting 24 hrs post tumor inoculation measured on day 5 of inoculation relative to control
# Format: organism-based
# Parameters: dose 12.5 mg/kg, route intraperitoneal
# experimentalParameters: in vivo
quantityName: Activity (g)

smilesstructure=CNC(=O)OCc1c(COC(=O)NC)c(-c2ccc(OC)cc2)n(C)c1C readoutvalue=3.2
smilesstructure=CNC(=O)OCc1c(COC(=O)NC)c(-c2ccc(C(C)(C)C)cc2)n(C)c1C readoutvalue=3.8
smilesstructure=CNC(=O)OCc1c(COC(=O)NC)c(-c2ccc(Sc3ccccc3)cc2)n(C)c1C readoutvalue=0.9
smilesstructure=CNC(=O)OCc1c(COC(=O)NC)c(-c2ccc(F)cc2)n(C)c1C readoutvalue=4.3
smilesstructure=CNC(=O)OCc1c(COC(=O)NC)c(-c2ccc(SC)cc2)n(C)c1C readoutvalue=4.3
smilesstructure=CNC(=O)OCc1c(COC(=O)NC)c(-c2ccc(S(C)(=O)=O)cc2)n(C)c1C readoutvalue=0.4
smilesstructure=CNC(=O)OCc1c(COC(=O)NC)c(-c2ccccc2)n(C)c1C readoutvalue=3.3

----------
Listed next: entries and their corresponding Activity.
# System: Mus musculus
# assayNotes: Toxicity in mouse P388 cells allografted CD2F1 mouse assessed as body weight loss at 25 mg/kg, ip of total 9 doses starting 24 hrs post tumor inoculation measured on day 5 of inoculation relative to control
# Format: organism-based
# Parameters: dose 25 mg/kg, route intraperitoneal
# experimentalParameters: in vivo
quantityName: Activity (g)

smilesstructure=CNC(=O)OCc1c(COC(=O)NC)c(-c2ccccc2)n(C)c1C readoutvalue=3.9
smilesstructure=CNC(=O)OCc1c(COC(=O)NC)c(-c2ccc(C)cc2)n(C)c1C readoutvalue=3.4
smilesstructure=CNC(=O)OCc1c(COC(=O)NC)c(-c2ccc([N+](=O)[O-])cc2)n(C)c1C readoutvalue=5.5
smilesstructure=CNC(=O)OCc1c(COC(=O)NC)c(-c2ccc(C(C)(C)C)cc2)n(C)c1C readoutvalue=4
smilesstructure=CNC(=O)OCc1c(COC(=O)NC)c(-c2ccc(Sc3ccccc3)cc2)n(C)c1C readoutvalue=2.1
smilesstructure=CNC(=O)OCc1c(COC(=O)NC)c(-c2ccc(Cl)c(Cl)c2)n(C)c1C readoutvalue=2.4
smilesstructure=CNC(=O)OCc1c(COC(=O)NC)c(-c2ccc(N)cc2)n(C)c1C readoutvalue=0.4
smilesstructure=CNC(=O)OCc1c(COC(=O)NC)c(-c2ccc(S(C)(=O)=O)cc2)n(C)c1C readoutvalue=0.8
smilesstructure=CNC(=O)OCc1c(COC(=O)NC)c(-c2ccc(SC)cc2)n(C)c1C readoutvalue=3.1
smilesstructure=CNC(=O)OCc1c(COC(=O)NC)c(-c2ccc(OC)cc2)n(C)c1C readoutvalue=3.4
smilesstructure=CNC(=O)OCc1c(COC(=O)NC)c(-c2ccc(Cl)cc2)n(C)c1C readoutvalue=4.4
smilesstructure=CNC(=O)OCc1c(COC(=O)NC)c(-c2ccc(F)cc2)n(C)c1C readoutvalue=3.9

----------
# System: Mus musculus
# assayNotes: Toxicity in mouse P388 cells allografted CD2F1 mouse assessed as body weight loss at 100 mg/kg, ip of total 9 doses starting 24 hrs post tumor inoculation measured on day 5 of inoculation relative to control
# Type: organism-based
# Set-up: dose 100 mg/kg, route intraperitoneal
# experimentalParameters: in vivo
Listed next: entries and their corresponding Activity.
quantityName: Activity (g)

smilesstructure=CNC(=O)OCc1c(COC(=O)NC)c(-c2ccc(F)cc2)n(C)c1C testedsystem="Mus musculus" readoutvalue=1.8
smilesstructure=CNC(=O)OCc1c(COC(=O)NC)c(-c2ccc(N)cc2)n(C)c1C testedsystem="Mus musculus" readoutvalue=3.5
smilesstructure=CNC(=O)OCc1c(COC(=O)NC)c(-c2ccc(Sc3ccccc3)cc2)n(C)c1C testedsystem="Mus musculus" readoutvalue=3.3
smilesstructure=CNC(=O)OCc1c(COC(=O)NC)c(-c2ccc([N+](=O)[O-])cc2)n(C)c1C testedsystem="Mus musculus" readoutvalue=4.4
smilesstructure=CNC(=O)OCc1c(COC(=O)NC)c(-c2ccc(OC)cc2)n(C)c1C testedsystem="Mus musculus" readoutvalue=5.5
smilesstructure=CNC(=O)OCc1c(COC(=O)NC)c(-c2ccc(Cl)cc2)n(C)c1C testedsystem="Mus musculus" readoutvalue=7.5
smilesstructure=CNC(=O)OCc1c(COC(=O)NC)c(-c2ccc(Cl)c(Cl)c2)n(C)c1C testedsystem="Mus musculus" readoutvalue=5.9
smilesstructure=CNC(=O)OCc1c(COC(=O)NC)c(-c2ccc(S(C)(=O)=O)cc2)n(C)c1C testedsystem="Mus musculus" readoutvalue=2.1
smilesstructure=CNC(=O)OCc1c(COC(=O)NC)c(-c2ccc(C(C)(C)C)cc2)n(C)c1C testedsystem="Mus musculus" readoutvalue=4.4
smilesstructure=CNC(=O)OCc1c(COC(=O)NC)c(-c2ccccc2)n(C)c1C testedsystem="Mus musculus" readoutvalue=6
smilesstructure=CNC(=O)OCc1c(COC(=O)NC)c(-c2ccc(C)cc2)n(C)c1C testedsystem="Mus musculus" readoutvalue=1.8
